pKd by entry:
target-desc: T1, human PD-1_Fc (human, UniProt Q15116 25-167, limits assumed)
T1 construct: not shown: Fc part
T1 sequence (Q15116 25-167 limits assumed): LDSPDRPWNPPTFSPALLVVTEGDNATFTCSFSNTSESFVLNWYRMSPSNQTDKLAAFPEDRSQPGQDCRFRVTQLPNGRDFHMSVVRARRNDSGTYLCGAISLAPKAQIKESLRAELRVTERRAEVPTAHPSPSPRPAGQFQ
assay-name: bio-layer interferometry (ForteBio), Fab in solution, human PD-1_Fc on sensor tip
Give only the number. pKd is defined as minus log10 of concentration in molar units.

Past entries and their recorded results:
[[record]]
binder = "Fab of Antibody C (Fab, V domains shown, Fab in solution in BLI; also called Antibody C (Fab in solution)) VH: QVQLVQSGAEVKKPGASVKVSCKASGYTFTAQYMHWVRQAPGQGLEWMGIINPSGGETGYAQKFQGRVTMTRDTSTSTVYMELSSLRSEDTAVYYCAKEGVADGYGLVDVWGQGTMVTVSS VL: EIVLTQSPATLSLSPGERATLSCRASQSVSSYLAWYQQKPGQAPRLLIYDASKRATGIPARFSGSGSGTDFTLTISSLEPEDFAVYYCDQRNNWPLTFGGGTKVEIK"
obs_value = 8.70

[[record]]
binder = "Fab of Antibody F (Fab, V domains shown, Fab in solution in BLI; also called Antibody F (Fab in solution)) VH: QVQLVQSGAEVKKPGASVKVSCKASGYTFSAYYMHWVRQAPGQGLEWMGIINPDGGSTGYAQKFQGRVTMTRDTSTSTVYMELSSLRSEDTAVYYCAKEGVADGYGLVDVWGQGTMVTVSS VL: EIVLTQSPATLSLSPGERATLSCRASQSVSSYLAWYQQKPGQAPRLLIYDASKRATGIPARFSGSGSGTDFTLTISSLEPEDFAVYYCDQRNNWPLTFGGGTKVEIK"
obs_value = 8.52

[[record]]
binder = "Fab of Antibody E (Fab, V domains shown, Fab in solution in BLI; also called Antibody E (Fab in solution)) VH: QVQLVQSGAEVKKPGASVKVSCKASGYTFTSNYMHWVRQAPGQGLEWMGIINPSEGSTGYAQKFQGRVTMTRDTSTSTVYMELSSLRSEDTAVYYCAKEGVADGYGLVDVWGQGTMVTVSS VL: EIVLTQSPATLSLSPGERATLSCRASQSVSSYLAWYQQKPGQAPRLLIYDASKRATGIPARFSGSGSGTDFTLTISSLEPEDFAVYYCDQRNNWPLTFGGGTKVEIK"
obs_value = 8.57


# evaluate next
For record Fab of Antibody B (Fab, V domains shown, Fab in solution in BLI; also called Antibody B (Fab in solution)) VH: QVQLVQSGAEVKKPGASVKVSCKASGYTFEGYYMHWVRQAPGQGLEWMGIINPEGGETSYAQKFQGRVTMTRDTSISTAYMELSRLRSDDTAVYYCAKEGVADGYGLVDVWGQGTMVTVSS VL: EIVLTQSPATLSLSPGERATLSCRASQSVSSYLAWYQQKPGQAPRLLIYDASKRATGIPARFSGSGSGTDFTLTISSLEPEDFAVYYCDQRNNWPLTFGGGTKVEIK the listed pKd is 8.57
